Each entry below carries its measured pIC50, system: aldose reductase (Rattus norvegicus).
pIC50: −log10 of the molar value.
recorded metric: pIC50

# compound, recorded metric, data value
records = [
    ("Cc1ccc(S(=O)(=O)N2C(=O)NC3(C[C@H](C(N)=O)Oc4ccc(F)cc43)C2=O)cc1 (single isomer, unassigned)", "pIC50", 4.00),
    ("CC(C)(C)C(=O)OCN1C(=O)NC2(C[C@H](C(N)=O)Oc3ccc(F)cc32)C1=O (single isomer, unassigned)", "pIC50", 4.00),
]
